test system: KYSE-520 cell line; assay: Antiproliferative activity against human KYSE520 cells assessed as reduction in cell viability measured after 48 hrs by alamar blue dye based spectrofluorometry; type: functional; conditions: KYSE-520, 48 h
pIC50: −log10 of the molar value.
Measurement Label: pIC50

molecule_smiles=CN1CC2(CCN(Cc3ccc(C(=O)NO)cc3)CC2)c2ccccc21 measurement_label=pIC50 numeric_result=3.71
molecule_smiles=O=C(NO)c1ccc(CC(=O)N2CCC3(CC2)CN(Cc2ccccc2)c2ccccc23)cc1 measurement_label=pIC50 numeric_result=4.47
molecule_smiles=O=C(NO)c1ccc(CN2CCC3(CC2)CN(Cc2ccccc2)c2ccccc23)cc1 measurement_label=pIC50 numeric_result=4.89

====

Item-by-item account of IC50
Target: Protein deacetylase HDAC6 (Homo sapiens)
Sequence (Q9UBN7 whole entry): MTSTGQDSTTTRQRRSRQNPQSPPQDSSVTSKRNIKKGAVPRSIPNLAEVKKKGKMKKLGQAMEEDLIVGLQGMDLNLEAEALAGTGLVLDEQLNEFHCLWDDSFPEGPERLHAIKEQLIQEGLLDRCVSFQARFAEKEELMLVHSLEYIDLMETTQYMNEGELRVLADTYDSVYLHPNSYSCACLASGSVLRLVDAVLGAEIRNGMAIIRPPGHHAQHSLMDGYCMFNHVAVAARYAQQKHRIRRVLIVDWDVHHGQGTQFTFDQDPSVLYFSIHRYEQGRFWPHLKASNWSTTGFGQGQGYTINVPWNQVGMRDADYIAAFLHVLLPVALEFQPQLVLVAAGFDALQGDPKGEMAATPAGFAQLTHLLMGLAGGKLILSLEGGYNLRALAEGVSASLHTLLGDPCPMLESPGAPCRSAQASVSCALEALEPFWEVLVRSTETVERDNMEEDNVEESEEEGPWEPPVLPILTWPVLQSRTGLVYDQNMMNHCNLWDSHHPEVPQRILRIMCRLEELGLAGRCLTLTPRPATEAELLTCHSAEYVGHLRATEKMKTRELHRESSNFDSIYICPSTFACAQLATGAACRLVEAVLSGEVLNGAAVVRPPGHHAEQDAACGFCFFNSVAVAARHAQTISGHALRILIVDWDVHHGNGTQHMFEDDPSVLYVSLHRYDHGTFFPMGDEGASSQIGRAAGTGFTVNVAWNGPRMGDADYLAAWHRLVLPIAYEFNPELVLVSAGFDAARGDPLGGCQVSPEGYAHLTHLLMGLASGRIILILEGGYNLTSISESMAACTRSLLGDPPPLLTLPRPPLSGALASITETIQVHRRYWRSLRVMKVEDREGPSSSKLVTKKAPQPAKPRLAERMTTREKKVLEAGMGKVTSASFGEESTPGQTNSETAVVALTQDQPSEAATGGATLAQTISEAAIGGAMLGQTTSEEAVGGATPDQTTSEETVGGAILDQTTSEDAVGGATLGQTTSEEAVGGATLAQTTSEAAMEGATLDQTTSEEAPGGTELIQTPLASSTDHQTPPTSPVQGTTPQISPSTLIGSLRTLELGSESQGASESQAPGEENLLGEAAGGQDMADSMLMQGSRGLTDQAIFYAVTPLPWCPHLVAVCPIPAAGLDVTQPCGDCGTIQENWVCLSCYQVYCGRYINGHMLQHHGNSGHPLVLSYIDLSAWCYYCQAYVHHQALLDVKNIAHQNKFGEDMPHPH
Measurement Label: IC50 (µM)

molecule_smiles=O=C(NO)c1ccc(CNC(=O)N2CCC3(CC2)CN(Cc2ccccc2)c2ccccc23)cc1 measurement_label=IC50 numeric_result=0.11
molecule_smiles=CN1CC2(CCN(Cc3ccc(C(=O)NO)cc3)CC2)c2ccccc21 measurement_label=IC50 numeric_result=0.264
molecule_smiles=O=C(NO)c1ccc(CN2CCC3(CC2)CN(Cc2ccccc2)c2ccccc23)cc1 measurement_label=IC50 numeric_result=0.561
